The reported measurements were obtained from ChEMBL document CHEMBL4368907.

Target: Cholecystokinin receptor type A (Homo sapiens) (UniProt P32238)
Sequence (whole entry): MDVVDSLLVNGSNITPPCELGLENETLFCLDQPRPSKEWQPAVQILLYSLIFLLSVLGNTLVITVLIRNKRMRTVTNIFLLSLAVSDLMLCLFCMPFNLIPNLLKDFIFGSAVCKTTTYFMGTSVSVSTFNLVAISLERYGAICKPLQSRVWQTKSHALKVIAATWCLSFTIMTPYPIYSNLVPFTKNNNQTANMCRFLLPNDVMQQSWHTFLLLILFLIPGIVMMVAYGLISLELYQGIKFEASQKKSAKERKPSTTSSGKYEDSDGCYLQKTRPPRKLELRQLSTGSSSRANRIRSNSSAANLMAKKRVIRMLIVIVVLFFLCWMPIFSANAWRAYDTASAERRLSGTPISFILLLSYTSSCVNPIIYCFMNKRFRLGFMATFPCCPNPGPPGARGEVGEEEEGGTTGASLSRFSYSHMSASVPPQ
Experiment: Agonist activity at human CCK1R expressed in human 1321N1 cells assessed as IP1 accumulation after 1 hr by HTRF assay
Type: functional, cell-based
The source made the active and inactive calls. No cut-off for these calls is given here. Numbered stars: 1 amine (or outer) side, 2 acyl side, 3 side chain; on linkers, the order of the positions; unused ones are H or OH. Square brackets hold non-standard residues; d marks the D form. Peptide text beside a SMILES is read from it. * marks the point of attachment. sY = N[C@@H](Cc1ccc(OS(=O)(=O)O)cc1)C(=O)O; C18 diacid = O=C(O)CCCCCCCCCCCCCCCCC(=O)*; γGlu = O=C(O)[C@H](CCC(=O)[*:2])N[*:1]; Nle = CCCC[C@H](N)C(=O)O; AEEA = NCCOCCOCC(=O)O
Outcome codes: active, inactive

compound	classLabel
CCCC[C@H](NC(=O)[C@H](Cc1ccc(OS(=O)(=O)O)cc1)NC(=O)[C@H](CC(=O)O)NC(=O)COCCOCCNC(=O)COCCOCCNC(=O)CC[C@H](NC(=O)CCCCCCCCCCCCCCCCC(=O)O)C(=O)O)C(=O)NCC(=O)N[C@@H](Cc1c[nH]c2ccccc12)C(=O)N[C@@H](CCC(=O)O)C(=O)N[C@@H](CC(=O)O)C(=O)N[C@@H](Cc1ccccc1)C(N)=O ({C18 diacid-γGlu-AEEA-AEEA}-D[sY][Nle]GWEDF-NH2)	inactive
CCCC[C@H](NC(=O)[C@H](Cc1ccc(OS(=O)(=O)O)cc1)NC(=O)[C@H](CC(=O)O)NC(=O)COCCOCCNC(=O)COCCOCCNC(=O)CC[C@H](NC(=O)CCCCCCCCCCCCCCCCC(=O)O)C(=O)O)C(=O)NCC(=O)N[C@@H](Cc1c[nH]c2ccccc12)C(=O)N[C@@H](CO)C(=O)N[C@@H](CC(=O)O)C(=O)N[C@@H](Cc1ccccc1)C(N)=O ({C18 diacid-γGlu-AEEA-AEEA}-D[sY][Nle]GWSDF-NH2)	inactive
CCCC[C@H](NC(=O)[C@H](Cc1ccc(OS(=O)(=O)O)cc1)NC(=O)[C@H](CC(=O)O)NC(=O)COCCOCCNC(=O)COCCOCCNC(=O)CC[C@H](NC(=O)CCCCCCCCCCCCCCCCC(=O)O)C(=O)O)C(=O)NCC(=O)N[C@@H](Cc1c[nH]c2ccccc12)C(=O)N[C@@H](C)C(=O)N[C@@H](CC(=O)O)C(=O)N[C@@H](Cc1ccccc1)C(N)=O ({C18 diacid-γGlu-AEEA-AEEA}-D[sY][Nle]GWADF-NH2)	inactive
CCCC[C@H](NC(=O)[C@H](Cc1ccc(OS(=O)(=O)O)cc1)NC(=O)[C@H](CC(=O)O)NC(=O)COCCOCCNC(=O)COCCOCCNC(=O)CC[C@H](NC(=O)CCCCCCCCCCCCCCCCC(=O)O)C(=O)O)C(=O)NCC(=O)N[C@@H](Cc1c[nH]c2ccccc12)C(=O)N[C@@H](Cc1ccccc1)C(=O)N[C@@H](CC(=O)O)C(=O)N[C@@H](Cc1ccccc1)C(N)=O ({C18 diacid-γGlu-AEEA-AEEA}-D[sY][Nle]GWFDF-NH2)	inactive
CCCC[C@H](NC(=O)[C@H](Cc1ccc(CS(=O)(=O)O)cc1)NC(=O)[C@H](CC(=O)O)NC(=O)COCCOCCNC(=O)COCCOCCNC(=O)CC[C@H](NC(=O)CCCCCCCCCCCCCCCCC(=O)O)C(=O)O)C(=O)NCC(=O)N[C@@H](Cc1c[nH]c2ccccc12)C(=O)N[C@@H](CCCC)C(=O)N(C)[C@H](CC(=O)O)C(=O)N(C)[C@@H](Cc1ccccc1)C(=O)O	inactive
CCCC[C@H](NC(=O)[C@H](Cc1ccc(OS(=O)(=O)O)cc1)NC(=O)[C@H](CC(=O)O)NC(=O)COCCOCCNC(=O)COCCOCCNC(=O)CC[C@H](NC(=O)CCCCCCCCCCCCCCCCC(=O)O)C(=O)O)C(=O)NCC(=O)N[C@@H](Cc1c[nH]c2ccccc12)C(=O)N[C@@H](CCCCN)C(=O)N[C@@H](CC(=O)O)C(=O)N[C@@H](Cc1ccccc1)C(N)=O ({C18 diacid-γGlu-AEEA-AEEA}-D[sY][Nle]GWKDF-NH2)	inactive
CCCC[C@H](NC(=O)[C@H](Cc1ccc(OS(=O)(=O)O)cc1)NC(=O)[C@H](CC(=O)O)NC(=O)COCCOCCNC(=O)COCCOCCNC(=O)CC[C@H](NC(=O)CCCCCCCCCCCCCCCCC(=O)O)C(=O)O)C(=O)NCC(=O)N[C@@H](Cc1c[nH]c2ccccc12)C(=O)N[C@@H](CC(C)C)C(=O)N[C@@H](CC(=O)O)C(=O)N[C@@H](Cc1ccccc1)C(N)=O	active
